- Tested on: TNFα production in LPS-stimulated human monocytes
- Assay details: Cot Monocyte TNFα Cell Based Assay
- Condition summary: Homo sapiens, Monocyte, LPS-stimulated human monocytes, TNFα TR-FRET; read-out: EC50 TNF
Field 'label' (enum: Fulfilled / Not fulfilled). Set to Fulfilled when EC50 is strictly under 200 nM; else Not fulfilled.

>>> group("Cc1c(C#N)cccc1[C@H](Nc1cc(Cl)c2ncc(C#N)c(NCC(C)(C)C(F)(F)F)c2c1)c1cn(C2(C)CC2)nn1")
"Fulfilled"
>>> group("CC(C)(C)CNc1c(C#N)cnc2c(C#N)cc(N[C@@H](c3ccccc3Cl)c3nnn(C4(C)CC4)c3F)cc12")
"Not fulfilled"
>>> group("CC(C)(C)CNc1c(C#N)cnc2c(Cl)cc(N[C@@H](c3cccc(-n4cccn4)c3)c3cn(C4CC4)nn3)cc12")
"Not fulfilled"
>>> group("CC(C)(C)CNc1c(C#N)cnc2c(C#N)cc(N[C@@H](c3cccc(C4(C#N)CC4)c3)c3cn(C4(C(F)(F)F)CC4)nn3)cc12")
"Not fulfilled"

query: Lab note: confirm whether the reported EC50 for this compound is below 200 nM, equality not counting. compound: `[2H][C@](Nc1cc(C#N)c2ncc(C#N)c(NCC(C)(C)C)c2c1)(c1cccc(C#N)c1)c1cn(-c2cccnc2)nn1`
result: Not fulfilled

query: For this compound, is EC50 lower than 200 nM? `Cc1c([C@H](Nc2cc(C#N)c3ncc(C#N)c(NCC(C)(C)C)c3c2)c2cn(C3(C(F)(F)F)CC3)nn2)cccc1-n1nccn1`
result: Not fulfilled

query: Lab log: compare recorded EC50 with 200 nM; is it strictly lower for `Cc1c([C@H](Nc2cc(C#N)c3ncc(C#N)c(NCC(C)(C)C)c3c2)c2cn(C3(C(F)(F)F)CC3)nn2)cccc1-n1ccnc1` ?
result: Fulfilled

query: Given `CC(C)(C)CNc1c(C#N)cnc2c(C#N)cc(N[C@H](c3cn(C4(C)CC4)nn3)c3ccccc3Cl)cc12` , is recorded EC50 strictly lower than 200 nM?
result: Fulfilled

query: Check if EC50 falls below 200 nM for `[2H][C@](Nc1cc(Br)c2ncc(C#N)c(N[C@H](CCC#N)c3ccccc3)c2c1)(c1ccc(F)cc1)c1cn(C2CC2)nn1` .
result: Fulfilled

query: Dear reviewer, please state whether `CC(C)(C)CNc1c(C#N)cnc2c(C#N)cc(N[C@H](c3cn(C4(C#N)CC4)nn3)c3ccccc3CO)cc12` has EC50 strictly beneath 200 nM.
result: Not fulfilled

query: Confirm or reject: EC50 of `CC(C)(C)CNc1c(C#N)cnc2c(Cl)cc(N[C@@H](c3ccc(F)cc3)c3cn(C4(C(F)(F)F)CCC4)nn3)cc12` lies strictly below 200 nM
result: Not fulfilled

query: EC50 under 200 nM? Item: `Cc1c([C@H](Nc2cc(Cl)c3ncc(C#N)c(NCC(C)(C)C)c3c2)c2cn(C3(C(F)(F)F)CC3)nn2)cccc1-n1cccn1`
result: Not fulfilled
